System: SN12C renal
Assay: NCI-60 one-dose screen, 48 h
Conditions: 10 µM unless noted
This is part of a sample that, as a whole, favours compounds with a hit. Of some 83,000 tested, about 20% had one in any assay. The source made the active and inactive calls. The calls were made as follows: active = growth percent below 10; inactive = the rest.
Outcome codes: 1 (yes) = active, 0 (no) = inactive

Compound: N#Cc1c(NC(=O)c2ccccc2I)sc2c1CCCC2
Classification: 0 (no)
--
Compound: C[C@@H]1CC[C@@H]2[C@@H]1[C@H](OC(=O)c1ccc3ccccc3c1)[C@]1(C3CCCCC3)C[C@@H](OC(=O)CO)[C@@]2(C)O1
Classification: 0 (no)
--
Compound: c1ccc2c(c1)nc(-n1ccnc1)c1nc3ccccc3n12
Classification: 0 (no)
--
Compound: CCNCCNc1cc(-c2ccc(C(=O)OC)cc2)c(C#N)c2nc3ccccc3n12
Classification: 0 (no)
--
Compound: O=C(Oc1ccc[nH]c1=O)c1cc([N+](=O)[O-])cc([N+](=O)[O-])c1
Classification: 0 (no)
--
Compound: COc1cc(/C=C/C(=O)c2cccc(-n3cc(-c4ccc(Cl)cc4)[nH]c3=O)c2)cc(OC)c1OC
Classification: 0 (no)
--
Compound: COc1cc(C(=O)/C=C/c2c(-c3ccc(F)cc3)nc3ncccn23)cc(OC)c1OC
Classification: 0 (no)
--
Compound: COc1ccc(/C(C)=C(\c2ccc(Cl)cc2)c2ccc(OCCN3CCCCC3)cc2)cc1F
Classification: 0 (no)
--
Compound: O=C1Nc2ccccc2/C1=N/N=C/c1ccsc1
Classification: 0 (no)
--
Compound: CCCCCCCCn1cc(C2=C(c3coc4ccc(OC)cc34)C(=O)NC2=O)c2ccccc21
Classification: 0 (no)
--
Compound: Cc1ccc(-n2nnc(C3=NCCc4c3[nH]c3ccc(Cl)cc43)c2C)cc1
Classification: 0 (no)
--
Compound: COc1ccc(N=c2nc3sc4cc(Cl)ccc4n3c(N)c2C#N)cc1
Classification: 0 (no)
--
Compound: NS(=O)(=O)Oc1ccc(-c2sc3cc(O)ccc3c2C(=O)c2ccc(OCCN3CCCCC3)cc2)cc1
Classification: 0 (no)
--
Compound: CO/C(=C1/NC(=O)C(Cc2ccc(O)c(Br)c2)N(C)C(=O)C(C)NC(=O)CCC/C=C(\C)CCC(C)OC1=O)c1ccccc1 (stereo not given)
Classification: 1 (yes)
--
Compound: CCn1c(Sc2nnc(Nc3ccccc3)s2)nc2c1c(=O)n(C)c(=O)n2C
Classification: 0 (no)
--
Compound: N#Cc1c(N)n2c(nc1=Nc1ccc(Cl)cc1)sc1cc(Cl)ccc12
Classification: 0 (no)
--
Compound: Cl.[Pt].[c-]1ccccc1-c1ccccn1.c1ccc(P(c2ccccc2)C([PH+](c2ccccc2)c2ccccc2)[PH+](c2ccccc2)c2ccccc2)cc1
Classification: 1 (yes)
--
Compound: Oc1ccccc1-c1nc2ccccn2c1NCCN1CCOCC1
Classification: 0 (no)
--
Compound: Cc1ccccc1NC(=O)CN(C)C
Classification: 0 (no)
--
Compound: c1ccc2c(c1)ncn2-c1nc2ccccc2n2c1nc1ccccc12
Classification: 0 (no)

====

System: SW-620 colon
Experiment: NCI-60 one-dose screen, 48 h
Conditions: 10 µM unless noted
This is part of a sample that, as a whole, favours compounds with a hit. Of some 83,000 tested, about 20% had one in any assay. Activity calls are given as the source filed them. How the source made its calls: active means growth percent below 10; inactive means the rest.
Outcome codes: active, inactive

Compound: C=C(C=O)[C@@H]1CC=C(C=O)CC1
Classification: active

Compound: COc1ccc(-c2cn(-c3cccc(C(=O)/C=C/c4cc(OC)c(OC)c(OC)c4)c3)c(=O)[nH]2)cc1
Classification: active

Compound: Cc1nc(-c2ccccc2)cc2c(O)c(C(=O)N/N=C/c3ccc(N(C)C)cc3)[nH]c(=O)c12
Classification: inactive

Compound: NC(=S)c1csc(CCNC(=O)c2ccccc2)n1
Classification: inactive

Compound: COc1cc(/C=C/C(=O)c2cccc(-n3cc(-c4ccc(Cl)cc4)[nH]c3=O)c2)cc(OC)c1OC
Classification: active

Compound: C=C1c2c(C)nn(-c3ccc(O)cc3)c2N(C)C23C[C@@H]1C1(C)c4c(C)nn(-c5ccc(O)cc5)c4N(C)C(C)(C[C@H]12)C3 (stereo not given in full)
Classification: inactive

Compound: CC(=O)c1ccc2c(c1)CCN2
Classification: inactive

Compound: COc1ccc(NC(=O)c2cccc(-c3cc(=O)c4c(O)c(OC)c(OC)cc4o3)c2)cc1
Classification: inactive

Compound: COc1ccc(-c2nc3sc4c(c3c(=O)[nH]2)CCCC4)c2ccccc12
Classification: inactive

Compound: COc1ccc(OC)c(Nc2nc3nonc3nc2Nc2cccc(Br)c2)c1
Classification: inactive
